# assay target: CD73 in whole blood (Homo sapiens (Human), UniProt P21589)
# Sequence (P21589 27-574): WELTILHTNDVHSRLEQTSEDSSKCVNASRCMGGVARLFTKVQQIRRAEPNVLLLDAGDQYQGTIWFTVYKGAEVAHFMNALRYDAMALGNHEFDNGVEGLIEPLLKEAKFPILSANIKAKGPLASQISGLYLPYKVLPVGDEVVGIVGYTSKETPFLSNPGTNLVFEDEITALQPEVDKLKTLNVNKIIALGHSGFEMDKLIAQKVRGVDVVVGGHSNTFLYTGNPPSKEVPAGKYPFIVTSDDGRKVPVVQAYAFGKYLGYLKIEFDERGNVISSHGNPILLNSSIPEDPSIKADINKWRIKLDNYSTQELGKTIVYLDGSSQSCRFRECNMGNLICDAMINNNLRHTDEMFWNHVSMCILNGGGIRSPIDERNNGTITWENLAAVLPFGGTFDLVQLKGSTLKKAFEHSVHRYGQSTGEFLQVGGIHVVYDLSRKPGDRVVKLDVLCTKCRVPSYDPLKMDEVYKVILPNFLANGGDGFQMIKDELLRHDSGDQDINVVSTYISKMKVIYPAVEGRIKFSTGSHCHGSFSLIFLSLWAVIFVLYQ
# method summary: Whole blood AMP Glo assay
# details: whole blood of healthy volunteers, 10 μM AMP, 30 min pre-incubation, 15 min at 37° C., levamisole 1.5 mM
pIC50: −log10 of the molar value. Where a name gives a salt, the structure may show the parent alone.
observation type: pIC50

Example entries begin here.
compound	observation type	reported result
CC1(C)CN(c2ncc(F)n3nc(-c4c[nH]c(=O)[nH]c4=O)cc23)CC1(F)F [Example 25.10]	pIC50	7.25
O=c1[nH]cc(-c2cc3c(N4CC(OCCN5CCCCC5)C(F)(F)C4)ncnn3c2)c(=O)[nH]1 (stereo not drawn) [Example 17, formate salt]	pIC50	6.92
O=c1[nH]cc(-c2cc3c(N4CCC(CO)C4)ncnc3s2)c(=O)[nH]1 (stereo not drawn) [Example 1]	pIC50	5.06
O=c1[nH]cc(-c2cc3c(N4CC(F)(F)C5(CCC5)C4)ncnc3o2)c(=O)[nH]1 [Example 19]	pIC50	5.91
O=c1[nH]cc(-c2cc3ncnc(N4CCC(OCCN5CCCCC5)C4)c3s2)c(=O)[nH]1 (stereo not drawn) [Example 8]	pIC50	7.29

a. N#Cc1ccc(OC2CCN(c3ncnc4sc(-c5c[nH]c(=O)[nH]c5=O)cc34)C2)nc1 (stereo not drawn) [Example 3]
b. CC1(C)CCN(c2ncnc3nn(-c4c[nH]c(=O)[nH]c4=O)cc23)C1 [Example 13.6]
c. O=c1[nH]cc(-c2cc3c(N4CC(F)(F)C5(CCC5)C4)nccn3n2)c(=O)[nH]1 [Example 25.1]
d. CC1(C)CN(c2ncnc3sc(-c4c[nH]c(=O)[nH]c4=O)cc23)CC1(F)F [Example 4]
Order field: pIC50 | Direction: descending (largest first) Lab note: record answer as labels in requested order.
b, c, a, d
(b: 8.92, c: 6.19, a: 5.65, d: 5.40)
